tested on: p-ERK of PC-9 cells; assay: p-ERK HTRF assay in PC-9 cells; assay type: cell-based; settings: Homo sapiens, PC-9, 1 h, PC-9 lung cancer cells, 1 hour treatment, read-out: IC50, inhibitory activity on p-ERK of PC-9 cells
Listed below: IC50 values for each entry.

A selection of reference data follows.
Request: What value of IC50 has been recorded for this entry: C[C@@H](Nc1ccnc2cnc(N3C[C@H](O)C[C@H]3CO)cc12)c1cccc(C(F)F)c1F [Compound B-78]
Result: ≤ 0.3 µM

Request: What value of IC50 has been recorded for this entry: C[C@@H](Nc1ccnc2cnc(C3(O)CCN(C(=O)N(C)C)CC3)cc12)c1cccc(C(F)F)c1F [Compound B-160]
Result: ≤ 0.3 µM

Request: What value of IC50 has been recorded for this entry: C[C@@H](Nc1ccnc2cnc(C3(O)CCC(N4CCNCC4)CC3)cc12)c1cccc(C(F)F)c1F (single isomer, unassigned) [Compound B-97-P2]
Result: 0.3 to 1 µM

Request: What value of IC50 has been recorded for this entry: COC1(c2cc3c(N[C@H](C)c4cccc(C(F)F)c4F)ccnc3cn2)CCC(O)CC1 (stereo partly shown) [Compound B-82]
Result: ≤ 0.3 µM

Request: What value of IC50 has been recorded for this entry: C[C@@H](Nc1ccnc2cnc(C3(O)CCN(CCO)CC3)cc12)c1cccc(C(F)F)c1F [Compound B-117]
Result: 0.3 to 1 µM

More entries:
Request: What value of IC50 has been recorded for this entry: C[C@@H](Nc1ccnc2cnc(C3(O)CCOCC3)cc12)c1cccc(C(F)F)c1F [Compound B-103]
Result: 0.3 to 1 µM

Request: What value of IC50 has been recorded for this entry: C[C@@H](Nc1ccnc2cnc(C3(O)CCN(C4COCC4O)CC3)cc12)c1cccc(C(F)F)c1F (stereo partly shown) [Compound B-152]
Result: 0.3 to 1 µM

###

biological target: KRAS-G12C/SOS1 (Homo sapiens (Human), UniProt Q07889); test: Detection of inhibitory effects of compounds on KRAS-G12C/SOS1 (KRASG12C/SOS binding kit, HTRF); settings: Em665/620, read-out: IC50, inhibitory activity on interaction of KRAS-G12C/SOS1
Sequence (Q07889 whole entry, stated change not applied): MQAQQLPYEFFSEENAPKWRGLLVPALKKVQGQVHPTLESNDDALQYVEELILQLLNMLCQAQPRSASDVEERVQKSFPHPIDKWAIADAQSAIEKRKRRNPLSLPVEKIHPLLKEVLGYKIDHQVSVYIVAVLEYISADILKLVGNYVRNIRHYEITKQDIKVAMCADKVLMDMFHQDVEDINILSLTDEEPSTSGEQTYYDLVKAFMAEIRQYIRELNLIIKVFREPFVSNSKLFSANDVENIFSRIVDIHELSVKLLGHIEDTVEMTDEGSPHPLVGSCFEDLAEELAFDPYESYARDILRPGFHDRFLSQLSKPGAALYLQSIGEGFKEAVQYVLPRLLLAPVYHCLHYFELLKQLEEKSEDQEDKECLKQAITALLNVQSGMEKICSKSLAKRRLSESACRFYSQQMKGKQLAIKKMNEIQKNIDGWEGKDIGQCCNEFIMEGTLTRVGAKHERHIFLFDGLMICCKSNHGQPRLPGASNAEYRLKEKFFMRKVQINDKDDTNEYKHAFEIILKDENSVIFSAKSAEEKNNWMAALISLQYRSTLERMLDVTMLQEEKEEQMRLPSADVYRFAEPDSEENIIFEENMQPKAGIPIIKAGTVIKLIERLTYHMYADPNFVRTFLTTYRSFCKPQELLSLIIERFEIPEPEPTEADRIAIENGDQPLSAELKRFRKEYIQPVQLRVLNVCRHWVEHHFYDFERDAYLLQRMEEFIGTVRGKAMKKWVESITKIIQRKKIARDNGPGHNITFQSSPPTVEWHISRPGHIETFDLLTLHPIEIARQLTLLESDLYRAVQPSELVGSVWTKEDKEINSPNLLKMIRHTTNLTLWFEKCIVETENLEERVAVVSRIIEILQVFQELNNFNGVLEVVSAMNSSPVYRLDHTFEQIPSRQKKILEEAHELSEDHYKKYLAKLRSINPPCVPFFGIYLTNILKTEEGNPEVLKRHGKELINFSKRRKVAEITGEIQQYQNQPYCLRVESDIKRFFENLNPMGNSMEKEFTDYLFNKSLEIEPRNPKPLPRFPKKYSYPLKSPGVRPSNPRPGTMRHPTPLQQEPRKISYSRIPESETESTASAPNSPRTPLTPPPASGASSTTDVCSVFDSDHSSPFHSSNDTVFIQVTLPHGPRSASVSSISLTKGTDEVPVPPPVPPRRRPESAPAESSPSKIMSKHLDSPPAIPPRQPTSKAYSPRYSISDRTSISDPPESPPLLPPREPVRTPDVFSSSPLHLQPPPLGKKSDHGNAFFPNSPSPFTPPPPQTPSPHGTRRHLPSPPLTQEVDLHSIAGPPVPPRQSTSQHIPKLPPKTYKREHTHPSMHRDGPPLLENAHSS
pIC50: −log10 of the molar value.
REPORTED_PROPERTY: pIC50

Request: What value of pIC50 has been recorded for this entry: `C[C@@H](Nc1ccnc2cnc(C3(O)CCN(C(=O)N(C)CCO)CC3)cc12)c1cccc(C(F)F)c1F`
Result: ≥ 7.00

Request: What value of pIC50 has been recorded for this entry: `C[C@@H](Nc1ccnc2cnc(C3(O)CCN(C(=O)CN4CCC(O)CC4)CC3)cc12)c1cccc(C(F)F)c1F`
Result: ≥ 7.00

Request: What value of pIC50 has been recorded for this entry: `COc1cc2nc(C)cc(N[C@H](C)c3cccc(C(F)F)c3F)c2cc1OC`
Result: ≥ 7.00

###

tested on: p-ERK of PC-9 cells; test: p-ERK HTRF assay in PC-9 cells; assay type: cell-based; conditions: Homo sapiens, PC-9, 1 h, PC-9 lung cancer cells, 1 hour treatment, read-out: IC50, inhibitory activity on p-ERK of PC-9 cells
REPORTED_PROPERTY: IC50

Request: What value of IC50 has been recorded for this entry: `C[C@@H](Nc1ccnc2cnc(N3CC[C@@H](N)C3)cc12)c1cccc(C(F)F)c1F`
Result: 300 to 1000 nM

Request: What value of IC50 has been recorded for this entry: `CC(=O)N1CCN(c2cc3c(N[C@H](C)c4cccc(C(F)F)c4F)ccnc3cn2)C(=O)C1`
Result: 300 to 1000 nM

Request: What value of IC50 has been recorded for this entry: `CC(=O)N1CCN(c2cc3c(N[C@H](C)c4cccc(C(F)F)c4F)ccnc3cn2)[C@@H](CC#N)C1`
Result: ≤ 300 nM

Request: What value of IC50 has been recorded for this entry: `C[C@@H](Nc1ccnc2cnc(C3(O)CCN(c4ncc(C#N)cn4)CC3)cc12)c1cccc(C(F)F)c1F`
Result: ≤ 300 nM

Request: What value of IC50 has been recorded for this entry: `COC1(c2cc3c(N[C@H](C)c4cccc(C(F)F)c4F)ccnc3cn2)CCOCC1`
Result: 300 to 1000 nM

Request: What value of IC50 has been recorded for this entry: `C[C@@H](Nc1ccnc2cnc(C3(O)CCN(C(=O)CN4CCOCC4)CC3)cc12)c1cccc(C(F)F)c1F`
Result: ≤ 300 nM

Request: What value of IC50 has been recorded for this entry: `CC(=O)N1CCN(c2cc3c(N[C@H](C)c4cccc(C(F)F)c4F)ccnc3c(C)n2)CC1`
Result: ≤ 300 nM

Request: What value of IC50 has been recorded for this entry: `C[C@H](O)C(=O)N1CCC(O)(c2cc3c(N[C@H](C)c4cccc(C(F)F)c4F)ccnc3cn2)CC1`
Result: ≤ 300 nM

Request: What value of IC50 has been recorded for this entry: `C[C@@H](Nc1ccnc2cnc(-c3ccn(C)c(=O)c3)cc12)c1cccc(C(F)F)c1F`
Result: ≤ 300 nM

Request: What value of IC50 has been recorded for this entry: `C[C@@H](Nc1ccnc2cnc(C3(O)CCN(C(=O)[C@@H]4CNCCO4)CC3)cc12)c1cccc(C(F)F)c1F`
Result: > 1000 nM

Request: What value of IC50 has been recorded for this entry: `Cc1nc(C2(O)CCN(C(=O)CO)CC2)cc2c(N[C@H](C)c3cccc(C(F)F)c3F)ccnc12`
Result: ≤ 300 nM

Request: What value of IC50 has been recorded for this entry: `C[C@@H](Nc1ccnc2cnc(C3(O)CCN(C(=O)[C@H]4C[C@@H](O)CN4)CC3)cc12)c1cccc(C(F)F)c1F`
Result: > 1000 nM

Request: What value of IC50 has been recorded for this entry: `CNC(=O)C1(O)CCN(c2cc3c(N[C@H](C)c4cccc(C(F)F)c4F)ccnc3cn2)CC1`
Result: ≤ 300 nM

Request: What value of IC50 has been recorded for this entry: `COCC(=O)N1CCC(O)(c2cc3c(N[C@H](C)c4cccc(C(F)F)c4F)ccnc3cn2)CC1`
Result: ≤ 300 nM

Request: What value of IC50 has been recorded for this entry: `CC(=O)NC1CCN(c2cc3c(N[C@H](C)c4cccc(C(F)F)c4F)ccnc3cn2)CC1`
Result: > 1000 nM

Request: What value of IC50 has been recorded for this entry: `C[C@@H](Nc1ccnc2cnc(C3(O)CCN(C(=O)COC(F)F)CC3)cc12)c1cccc(C(F)F)c1F`
Result: ≤ 300 nM

Request: What value of IC50 has been recorded for this entry: `C[C@H](O)C(=O)N1CCC(O)(c2cc3c(N[C@H](C)c4cccc(C(F)(F)F)c4F)ccnc3cn2)CC1`
Result: ≤ 300 nM

Request: What value of IC50 has been recorded for this entry: `CC(=O)N1CCN(c2cc3c(N[C@H](C)c4cccc(C(F)F)c4F)ccnc3cn2)[C@@H](CO)C1`
Result: ≤ 300 nM

Request: What value of IC50 has been recorded for this entry: `C[C@@H](Nc1ccnc2cnc(C3(O)CCN(C(=O)C[C@@H]4CCOC4)CC3)cc12)c1cccc(C(F)F)c1F`
Result: ≤ 300 nM

Request: What value of IC50 has been recorded for this entry: `C[C@@H](Nc1c(F)cnc2cnc(C3(O)CCN(C(=O)CO)CC3)cc12)c1cccc(C(F)F)c1F`
Result: ≤ 300 nM

Request: What value of IC50 has been recorded for this entry: C[C@@H](Nc1ccnc2cnc(N3CCC(O)CC3=O)cc12)c1cccc(C(F)F)c1F (some centres unmarked)
Result: 300 to 1000 nM

Request: What value of IC50 has been recorded for this entry: CC(=O)N1CCC(c2cc3c(N[C@H](C)c4cccc(C(F)F)c4F)ccnc3cn2)C1 (some centres unmarked)
Result: ≤ 300 nM

Request: What value of IC50 has been recorded for this entry: `C[C@@H](Nc1ccnc2cnc(C3(O)CCN(C(=O)C[C@H]4CNCCO4)CC3)cc12)c1cccc(C(F)F)c1F`
Result: > 1000 nM
